Provide the recorded inhibition at 32 µM for the entries that follow.
SYSTEM UNDER TEST: HLA-DR1 (DRA*01:01/DRB1*01:01) (Homo sapiens, UniProt P01903+P01911, A100R/D57E/F55L/F60I/F76Y/I96L/L162R/M171V/P40L/Q125E/R42F/V115G/Y59C)
Construct: HLA-DR1 (DRA*01:01/DRB1*01:01) extracellular domain was expressed in Drosophila S2 cells; made in house
ASSAY INFO: biochemical
Type: binding
ASSAY SETUP: 72 h, read-out: fraction of labeled HA binding inhibited
Just the number in %, nothing appended.

compound CC(=O)N1CCC[C@H]1C(=O)N[C@@H](CCCNC(=N)N)C(=O)N[C@@H](Cc1ccc(O)cc1)C(=O)N[C@H](C(=O)N[C@@H](CCCCN)C(=O)NC(CC(=O)N[C@@H](CC(N)=O)C(=O)N[C@H](C(=O)N[C@@H](CC(C)C)C(=O)N[C@@H](CCCNC(=N)N)C(=O)N[C@@H](CC(C)C)C(=O)N[C@@H](C)C(=O)N[C@H](C(=O)O)[C@@H](C)O)[C@@H](C)O)c1ccccc1[N+](=O)[O-])C(C)C (stereo partly shown) , inhibition at 32 µM observed: 10

The compound CC(=O)N[C@@H](Cc1ccc(O)cc1)C(=O)N[C@H](C(=O)N[C@@H](CCCCN)C(=O)NC(CC(=O)N[C@@H](CC(N)=O)C(=O)N[C@H](C(=O)N[C@@H](CC(C)C)C(=O)N[C@@H](CCCNC(=N)N)C(=O)N[C@@H](CC(C)C)C(=O)N[C@@H](C)C(=O)N[C@H](C(=O)O)[C@@H](C)O)[C@@H](C)O)c1ccccc1[N+](=O)[O-])C(C)C (stereo partly shown) showed inhibition at 32 µM equal to 3.82

For this compound ( CC(C)C[C@H](NC(=O)[C@H](CCCNC(=N)N)NC(=O)[C@H](CC(C)C)NC(=O)[C@@H](NC(=O)[C@H](CC(N)=O)NC(=O)CC(NC(=O)[C@H](CCCCN)NC(=O)[C@@H](NC(=O)[C@@H](N)Cc1ccc(O)cc1)C(C)C)c1ccccc1[N+](=O)[O-])[C@@H](C)O)C(=O)N[C@@H](C)C(=O)N[C@H](C(=O)O)[C@@H](C)O (stereo partly shown) ), measured inhibition at 32 µM is -0.549

Note to self: inhibition at 32 µM recorded for CC(C)C[C@H](NC(=O)[C@H](CCCNC(=N)N)NC(=O)[C@H](CC(C)C)NC(=O)[C@@H](NC(=O)[C@H](CC(N)=O)NC(=O)CC(NC(=O)[C@H](CCCCN)NC(=O)[C@@H](NC(=O)[C@H](Cc1ccc(O)cc1)NC(=O)[C@H](CCCNC(=N)N)NC(=O)[C@@H]1CCCN1)C(C)C)c1ccccc1[N+](=O)[O-])[C@@H](C)O)C(=O)N[C@@H](C)C(=O)N[C@H](C(=O)O)[C@@H](C)O (stereo partly shown) was 22.2

====

SYSTEM UNDER TEST: HLA-DR1 (DRA*01:01/DRB1*01:01) (Homo sapiens, UniProt P01903+P01911, A100R/D57E/F55L/F60I/F76Y/I96L/L162R/M171V/P40L/Q125E/R42F/V115G/Y59C)
Construct: HLA-DR1 (DRA*01:01/DRB1*01:01) extracellular domain was expressed in Drosophila S2 cells; made in house
ASSAY INFO: biochemical
Format: binding
ASSAY SETUP: 72 h, read-out: fraction of labeled HA binding inhibited
Provide the recorded inhibition at 6.4 µM for the entries that follow.
Respond with the bare value in %.

Recorded result, CC(=O)N[C@@H](Cc1ccc(O)cc1)C(=O)N[C@H](C(=O)N[C@@H](CCCCN)C(=O)NC(CC(=O)N[C@@H](CC(N)=O)C(=O)N[C@H](C(=O)N[C@@H](CC(C)C)C(=O)N[C@@H](CCCNC(=N)N)C(=O)N[C@@H](CC(C)C)C(=O)N[C@@H](C)C(=O)N[C@H](C(=O)O)[C@@H](C)O)[C@@H](C)O)c1ccccc1[N+](=O)[O-])C(C)C (stereo partly shown) , inhibition at 6.4 µM: -1.21

Measured inhibition at 6.4 µM of CC(C)C[C@H](NC(=O)[C@H](CCCNC(=N)N)NC(=O)[C@H](CC(C)C)NC(=O)[C@@H](NC(=O)[C@H](CC(N)=O)NC(=O)CC(NC(=O)[C@H](CCCCN)NC(=O)[C@@H](NC(=O)[C@@H](N)Cc1ccc(O)cc1)C(C)C)c1ccccc1[N+](=O)[O-])[C@@H](C)O)C(=O)N[C@@H](C)C(=O)N[C@H](C(=O)O)[C@@H](C)O (stereo partly shown) : -1.22

Reported inhibition at 6.4 µM for CC(=O)N1CCC[C@H]1C(=O)N[C@@H](CCCNC(=N)N)C(=O)N[C@@H](Cc1ccc(O)cc1)C(=O)N[C@H](C(=O)N[C@@H](CCCCN)C(=O)NC(CC(=O)N[C@@H](CC(N)=O)C(=O)N[C@H](C(=O)N[C@@H](CC(C)C)C(=O)N[C@@H](CCCNC(=N)N)C(=O)N[C@@H](CC(C)C)C(=O)N[C@@H](C)C(=O)N[C@H](C(=O)O)[C@@H](C)O)[C@@H](C)O)c1ccccc1[N+](=O)[O-])C(C)C (stereo partly shown) was -0.583

Per the records, this compound ( CC(C)C[C@H](NC(=O)[C@H](CCCNC(=N)N)NC(=O)[C@H](CC(C)C)NC(=O)[C@@H](NC(=O)[C@H](CC(N)=O)NC(=O)CC(NC(=O)[C@H](CCCCN)NC(=O)[C@@H](NC(=O)[C@H](Cc1ccc(O)cc1)NC(=O)[C@H](CCCNC(=N)N)NC(=O)[C@@H]1CCCN1)C(C)C)c1ccccc1[N+](=O)[O-])[C@@H](C)O)C(=O)N[C@@H](C)C(=O)N[C@H](C(=O)O)[C@@H](C)O (stereo partly shown) ) has inhibition at 6.4 µM equal to -1.3

====

SYSTEM UNDER TEST: HLA-DR1 (DRA*01:01/DRB1*01:01) (Homo sapiens, UniProt P01903+P01911, A100R/D57E/F55L/F60I/F76Y/I96L/L162R/M171V/P40L/Q125E/R42F/V115G/Y59C)
Construct: HLA-DR1 (DRA*01:01/DRB1*01:01) extracellular domain was expressed in Drosophila S2 cells; made in house
ASSAY INFO: biochemical
Assay type: binding
ASSAY SETUP: 72 h, read-out: fraction of labeled HA binding inhibited
OUTCOME MEASURE: inhibition at 1.28 µM (%)
I only need the number, in %, no unit after it.

The value of inhibition at 1.28 µM measured for the compound CC(=O)N[C@@H](Cc1ccc(O)cc1)C(=O)N[C@H](C(=O)N[C@@H](CCCCN)C(=O)NC(CC(=O)N[C@@H](CC(N)=O)C(=O)N[C@H](C(=O)N[C@@H](CC(C)C)C(=O)N[C@@H](CCCNC(=N)N)C(=O)N[C@@H](CC(C)C)C(=O)N[C@@H](C)C(=O)N[C@H](C(=O)O)[C@@H](C)O)[C@@H](C)O)c1ccccc1[N+](=O)[O-])C(C)C (stereo partly shown) turned out to be -1.61

Given item CC(C)C[C@H](NC(=O)[C@H](CCCNC(=N)N)NC(=O)[C@H](CC(C)C)NC(=O)[C@@H](NC(=O)[C@H](CC(N)=O)NC(=O)CC(NC(=O)[C@H](CCCCN)NC(=O)[C@@H](NC(=O)[C@@H](N)Cc1ccc(O)cc1)C(C)C)c1ccccc1[N+](=O)[O-])[C@@H](C)O)C(=O)N[C@@H](C)C(=O)N[C@H](C(=O)O)[C@@H](C)O (stereo partly shown) , the value recorded as its inhibition at 1.28 µM is -1.83

Documented inhibition at 1.28 µM of CC(=O)N1CCC[C@H]1C(=O)N[C@@H](CCCNC(=N)N)C(=O)N[C@@H](Cc1ccc(O)cc1)C(=O)N[C@H](C(=O)N[C@@H](CCCCN)C(=O)NC(CC(=O)N[C@@H](CC(N)=O)C(=O)N[C@H](C(=O)N[C@@H](CC(C)C)C(=O)N[C@@H](CCCNC(=N)N)C(=O)N[C@@H](CC(C)C)C(=O)N[C@@H](C)C(=O)N[C@H](C(=O)O)[C@@H](C)O)[C@@H](C)O)c1ccccc1[N+](=O)[O-])C(C)C (stereo partly shown) : -3.02

Briefly, inhibition at 1.28 µM measured for CC(C)C[C@H](NC(=O)[C@H](CCCNC(=N)N)NC(=O)[C@H](CC(C)C)NC(=O)[C@@H](NC(=O)[C@H](CC(N)=O)NC(=O)CC(NC(=O)[C@H](CCCCN)NC(=O)[C@@H](NC(=O)[C@H](Cc1ccc(O)cc1)NC(=O)[C@H](CCCNC(=N)N)NC(=O)[C@@H]1CCCN1)C(C)C)c1ccccc1[N+](=O)[O-])[C@@H](C)O)C(=O)N[C@@H](C)C(=O)N[C@H](C(=O)O)[C@@H](C)O (stereo partly shown) : -2.9
